Answer each item with its documented Activity.
Test: Antioxidant activity assessed as AAPH radical scavenging activity by measuring Trolox equivalents after 90 mins by fluorescein probe based ORAC assay
Type: physicochemical
Conditions: 1.5 h

The measured Activity associated with `COc1cc(/C=N/NC(=O)c2nn(-c3ccc(F)c(Cl)c3)c(-c3ccc(Cl)cc3)c2C)ccc1O` reads 882 g⁻¹

The measured Activity associated with `COc1cc(/C=N/NC(=O)c2nn(-c3ccc(Cl)cc3Cl)c(-c3ccc(C(F)(F)F)cc3)c2C)ccc1O` reads 401 g⁻¹

The measured Activity associated with `COc1cc(/C=N/NC(=O)c2nn(-c3ccc(Cl)c(Cl)c3)c(-c3ccc(Cl)cc3)c2C)ccc1O` reads 432 g⁻¹

The measured Activity associated with `COc1cc(/C=N/NC(=O)c2nn(-c3ccc(Cl)cc3Cl)c(-c3ccc(Cl)cc3)c2C)ccc1O` reads 634 g⁻¹

The measured Activity associated with `COc1cc(C(=O)O)ccc1O` reads 2979 g⁻¹

The measured Activity associated with `COc1cc(/C=N/NC(=O)c2nn(-c3ccc(F)c(Cl)c3)c(-c3ccc(F)cc3)c2C)ccc1O` reads 525 g⁻¹

The measured Activity associated with `COc1cc(/C=N/NC(=O)c2nn(-c3ccc(C(F)(F)F)cc3)c(-c3ccc(Cl)cc3)c2C)ccc1O` reads 867 g⁻¹

The measured Activity associated with `COc1cc(/C=N/NC(=O)c2nn(-c3ccc(F)cc3F)c(-c3ccc(C(F)(F)F)cc3)c2C)ccc1O` reads 993 g⁻¹

* * *

Assay: Antioxidant activity assessed as AAPH radical scavenging activity by measuring Trolox equivalents after 90 mins by fluorescein probe based ORAC assay
Type: physicochemical
Conditions: 1.5 h
Answer each item with its documented Activity.
Output spec: scalar in g⁻¹, unitless text.

The measured Activity associated with `COc1cc(/C=N/NC(=O)c2nn(-c3ccc(Cl)cc3Cl)c(-c3ccccc3)c2C)ccc1O` reads 1076

The measured Activity associated with `COc1cc(/C=N/NC(=O)c2nn(-c3ccc(F)cc3F)c(-c3ccc(F)cc3)c2C)ccc1O` reads 891

The measured Activity associated with `COc1cc(/C=N/NC(=O)c2nn(-c3ccccc3)c(-c3ccccc3)c2C)ccc1O` reads 611

* * *

Tested on: Rattus norvegicus
Test: Hypoglycemic effect in Wistar rat model of streptozotocin-induced type-2 diabetes mellitus assessed as reduction in blood glucose level at 50 mg/kg, ig after 7 hrs
Assay type: functional
Settings: po
Answer each item with its documented inhibition in vivo at 50 mg/kg.
Output spec: scalar in %, unitless text.

The measured inhibition in vivo at 50 mg/kg associated with `COc1cc(/C=N/NC(=O)c2nn(-c3ccc(Cl)cc3Cl)c(-c3ccccc3)c2C)ccc1O` reads 26.6

The measured inhibition in vivo at 50 mg/kg associated with `COc1cc(/C=N/NC(=O)c2nn(-c3ccc(Cl)c(Cl)c3)c(-c3ccc(Cl)cc3)c2C)ccc1O` reads 33.3

The measured inhibition in vivo at 50 mg/kg associated with `COc1cc(/C=N/NC(=O)c2nn(-c3ccc(Cl)cc3Cl)c(-c3ccc(C(F)(F)F)cc3)c2C)ccc1O` reads 35.3

The measured inhibition in vivo at 50 mg/kg associated with `COc1cc(/C=N/NC(=O)c2nn(-c3ccc(Cl)cc3Cl)c(-c3ccc(Cl)cc3)c2C)ccc1O` reads 64.9

* * *

Assay: Antioxidant activity assessed as DPPH radical scavenging activity
Type: physicochemical
Answer each item with its documented pEC50.
// pEC50 here means minus log10 of the molar concentration (mol/L)

The measured pEC50 associated with `COc1cc(/C=N/NC(=O)c2nn(-c3ccc(C(F)(F)F)cc3)c(-c3ccc(Br)cc3)c2C)ccc1O` reads 2.54

The measured pEC50 associated with `COc1cc(/C=N/NC(=O)c2nn(-c3ccc(Cl)cc3Cl)c(-c3ccc(C(F)(F)F)cc3)c2C)ccc1O` reads 2.37

The measured pEC50 associated with `COc1cc(/C=N/NC(=O)c2nn(-c3ccc(F)cc3F)c(-c3ccc(F)cc3)c2C)ccc1O` reads 2.45

The measured pEC50 associated with COc1cc(C(=O)O)ccc1O [VANILLIC ACID] reads 1.18

The measured pEC50 associated with `COc1cc(/C=N/NC(=O)c2nn(-c3ccc(F)cc3F)c(-c3ccc(C(F)(F)F)cc3)c2C)ccc1O` reads 2.54

The measured pEC50 associated with `COc1cc(/C=N/NC(=O)c2nn(-c3ccc(Cl)cc3Cl)c(-c3ccccc3)c2C)ccc1O` reads 2.52

The measured pEC50 associated with `COc1cc(/C=N/NC(=O)c2nn(-c3ccc(F)c(Cl)c3)c(-c3ccc(Cl)cc3)c2C)ccc1O` reads 2.45

The measured pEC50 associated with `COc1cc(/C=N/NC(=O)c2nn(-c3ccc(Cl)c(Cl)c3)c(-c3ccc(Cl)cc3)c2C)ccc1O` reads 2.59

The measured pEC50 associated with `COc1cc(/C=N/NC(=O)c2nn(-c3ccccc3)c(-c3ccccc3)c2C)ccc1O` reads 2.61

The measured pEC50 associated with O=C1O[C@H]([C@@H](O)CO)C(O)=C1O [ASCORBIC ACID] reads 2.68

The measured pEC50 associated with `COc1cc(/C=N/NC(=O)c2nn(-c3ccc(Cl)cc3Cl)c(-c3ccc(Cl)cc3)c2C)ccc1O` reads 2.45

The measured pEC50 associated with `COc1cc(/C=N/NC(=O)c2nn(-c3ccc(F)c(Cl)c3)c(-c3ccc(F)cc3)c2C)ccc1O` reads 2.16

The measured pEC50 associated with `COc1cc(/C=N/NC(=O)c2nn(-c3ccc(C(F)(F)F)cc3)c(-c3ccc(Cl)cc3)c2C)ccc1O` reads 2.63

The measured pEC50 associated with `COc1cc(/C=N/NC(=O)c2nn(-c3ccnc4cc(Cl)ccc34)c(-c3ccc(Cl)cc3)c2C)ccc1O` reads 2.34

The measured pEC50 associated with `COc1cc(/C=N/NC(=O)c2nn(-c3ccnc4cc(Cl)ccc34)c(-c3ccc(F)cc3)c2C)ccc1O` reads 2.19
